src = patent US20080085889A1

Target: His6-tagged hSEP ectodomain (Homo sapiens, UniProt Q495T6)
Sequence (Q495T6 49-779 limits assumed): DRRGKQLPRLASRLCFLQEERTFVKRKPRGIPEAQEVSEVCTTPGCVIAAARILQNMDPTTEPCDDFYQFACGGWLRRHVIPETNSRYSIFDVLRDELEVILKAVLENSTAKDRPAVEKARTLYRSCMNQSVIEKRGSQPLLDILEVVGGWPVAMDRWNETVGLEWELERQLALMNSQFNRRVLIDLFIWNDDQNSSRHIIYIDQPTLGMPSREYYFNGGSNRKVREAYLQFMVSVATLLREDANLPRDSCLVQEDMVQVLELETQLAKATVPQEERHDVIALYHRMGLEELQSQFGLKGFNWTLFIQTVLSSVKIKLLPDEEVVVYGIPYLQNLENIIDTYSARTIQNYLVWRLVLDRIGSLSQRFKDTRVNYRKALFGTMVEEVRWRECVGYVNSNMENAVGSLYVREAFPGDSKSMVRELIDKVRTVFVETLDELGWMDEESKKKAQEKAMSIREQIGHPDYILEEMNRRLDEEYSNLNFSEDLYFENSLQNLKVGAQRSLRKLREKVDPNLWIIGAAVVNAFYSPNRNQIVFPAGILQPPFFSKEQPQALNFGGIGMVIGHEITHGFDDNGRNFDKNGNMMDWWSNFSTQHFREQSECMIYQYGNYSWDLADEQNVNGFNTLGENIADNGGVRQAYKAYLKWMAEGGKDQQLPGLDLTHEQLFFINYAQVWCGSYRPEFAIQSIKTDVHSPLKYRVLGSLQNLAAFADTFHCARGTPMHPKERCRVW
For each of the compounds below, state its pIC50.
Note on pIC50: it is the negative log10 of concentration, concentration in mol/L.

Request: Give His6-tagged hSEP ectodomain (Homo sapiens, UniProt Q495T6) pIC50 for CN(CCO)C(=O)CC(CC1(C(=O)NC2CCc3ccccc3N(CC(=O)O)C2=O)CCCC1)C(=O)O (racemic) [Example 43]
Result: 8.54

Request: Recall the recorded pIC50 for CNC(=O)CC(CC1(C(=O)N[C@H]2CCc3ccccc3N(CC(=O)O)C2=O)CCCC1)C(=O)O (mixture of isomers) [Example 28] with His6-tagged hSEP ectodomain (Homo sapiens, UniProt Q495T6) and state it.
Result: 7.92

Request: Please provide the recorded pIC50 for CN(C)CCCN(C)C(=O)CC(CC1(C(=O)NC2CCc3ccccc3N(CC(=O)O)C2=O)CCCC1)C(=O)O (stereo not shown) [Example 64] , tested on His6-tagged hSEP ectodomain (Homo sapiens, UniProt Q495T6).
Result: 8.30

Request: Find the measured pIC50: item CN(CCCO)C(=O)CC(CC1(C(=O)NC2CCc3ccccc3N(CC(=O)O)C2=O)CCCC1)C(=O)O (racemic) [Example 56] , target or system His6-tagged hSEP ectodomain (Homo sapiens, UniProt Q495T6).
Result: 8.60

Request: So what pIC50 did O=C(O)CN1C(=O)[C@@H](NC(=O)C2(CC(CC(=O)NCCCO)C(=O)O)CCCC2)CCc2ccccc21 (stereo in doubt) [Example 10] get with His6-tagged hSEP ectodomain (Homo sapiens, UniProt Q495T6)?
Result: 7.60

Request: Form field - read-out: pIC50; system: His6-tagged hSEP ectodomain (Homo sapiens, UniProt Q495T6); submitted item: COCCNC(=O)CC(CC1(C(=O)N[C@H]2CCc3ccccc3N(CC(=O)O)C2=O)CCCC1)C(=O)O (mixture of isomers) [Example 16]
Result: 7.82

Request: Tell me reported pIC50 for CCN(CCCN)C(=O)CC(CC1(C(=O)NC2CCc3ccccc3N(CC(=O)O)C2=O)CCCC1)C(=O)O (stereo not shown) [Example 80] , tested with His6-tagged hSEP ectodomain (Homo sapiens, UniProt Q495T6).
Result: 8.52
